# PROTOCOL_TEXT: Cytotoxicity against human MCF-10A cells assessed as inhibition of cell proliferation at 2 uM incubated for 48 hrs by MTT assay
# Format: cell-based
Catalogue of inhibition at 48 h, 2 µM values
OBSERVATION_TYPE: inhibition at 48 h, 2 µM (%)

MOLECULE: Cc1noc(C)c1-c1ccc2c(c1)C(c1ccccc1)N(CCCCCCCC(=O)N1CCN(c3ccc4nnc(Cl)n4n3)CC1)C(=O)N2C (centres undefined)
RESULT_VALUE: 0.5
--
MOLECULE: Cc1noc(C)c1-c1ccc2c(c1)C(c1ccccc1)N(CCOCCN1CCN(c3ccc4nnc(Cl)n4n3)CC1)C(=O)N2C (centres undefined)
RESULT_VALUE: 6
--
MOLECULE: Cc1nc(-c2ccc(F)cc2)sc1CN1C(=O)N(C)c2ccc(-c3c(C)noc3C)cc2C1c1ccccc1 (centres undefined)
RESULT_VALUE: 6.5
--
MOLECULE: Cc1noc(C)c1-c1ccc2c(c1)C(c1ccccc1)N(CC(=O)N1CCN(c3ccc4nnc(Cl)n4n3)CC1)C(=O)N2C (centres undefined)
RESULT_VALUE: 10.9

====

# PROTOCOL_TEXT: Cytotoxicity against human MCF-10A cells assessed as inhibition of cell proliferation at 2 uM incubated for 48 hrs by MTT assay
# Type: cell-based
Classification field: enter Y for inhibition at 48 h, 2 µM values not below 4%, N for values below it.

COMPOUND: Cc1noc(C)c1-c1ccc2c(c1)C(c1ccccc1)N(Cc1nnc(-c3ccccc3)o1)C(=O)N2C (configuration not stated)
ASSIGNED_LABEL: Y
--
COMPOUND: Cc1noc(C)c1-c1ccc2c(c1)C(c1ccccc1)N(Cc1ncc(-c3ccccc3)o1)C(=O)N2C (configuration not stated)
ASSIGNED_LABEL: N
--
COMPOUND: Cc1noc(C)c1-c1ccc2c(c1)C(c1ccccc1)N(Cc1nc(-c3ccc(F)cc3)cs1)C(=O)N2C (configuration not stated)
ASSIGNED_LABEL: Y
--
COMPOUND: Cc1noc(C)c1-c1ccc2c(c1)C(c1ccccc1)N(Cc1csc(-c3ccccc3)n1)C(=O)N2C (configuration not stated)
ASSIGNED_LABEL: Y
--
COMPOUND: Cc1noc(C)c1-c1ccc2c(c1)C(c1ccccc1)N(CCCCCN1CCN(c3ccc4nnc(Cl)n4n3)CC1)C(=O)N2C (configuration not stated)
ASSIGNED_LABEL: Y
--
COMPOUND: Cc1sc2c(c1C)C(c1ccc(Cl)cc1)=N[C@@H](CC(=O)OC(C)(C)C)c1nnc(C)n1-2
ASSIGNED_LABEL: Y
--
COMPOUND: Cc1noc(C)c1-c1ccc2c(c1)C(c1ccccc1)N(Cc1nnc(-c3ccc(F)cc3)o1)C(=O)N2C (configuration not stated)
ASSIGNED_LABEL: N

====

# Tested on: CT26
# PROTOCOL_TEXT: Antiproliferative activity against […] assessed as inhibition of cell proliferation incubated for 48 hrs by MTT assay
# Format: functional, cell-based
# PARTICULARS: Mus musculus, CT26, 48 h
Catalogue of IC50 values

MOLECULE: Cc1sc2c(c1C)C(c1ccc(Cl)cc1)=N[C@@H](CC(=O)OC(C)(C)C)c1nnc(C)n1-2
ASSAYED_SYSTEM: CT26
IC50, µM: 28.7

MOLECULE: Cc1noc(C)c1-c1ccc2c(c1)C(c1ccccc1)N(CCCCN1CCN(c3ccc4nnc(Cl)n4n3)CC1)C(=O)N2C (stereo not drawn)
ASSAYED_SYSTEM: CT26
IC50, µM: 15.8

MOLECULE: CCS(=O)(=O)Nc1ccc(Oc2ccc(F)cc2F)c(-c2cn(C)c(=O)c3[nH]ccc23)c1
ASSAYED_SYSTEM: CT26
IC50, µM: 48.3

MOLECULE: Cc1noc(C)c1-c1ccc2c(c1)C(c1ccccc1)N(Cc1nnc(-c3ccccc3)o1)C(=O)N2C (stereo not drawn)
ASSAYED_SYSTEM: CT26
IC50, µM: 21.2

MOLECULE: Cc1noc(C)c1-c1ccc2c(c1)C(c1ccccc1)N(CCOCCN1CCN(c3ccc4nnc(Cl)n4n3)CC1)C(=O)N2C (stereo not drawn)
ASSAYED_SYSTEM: CT26
IC50, µM: 22.9

MOLECULE: Cc1noc(C)c1-c1ccc2c(c1)C(c1ccccc1)N(CCCCCN1CCN(c3ccc4nnc(Cl)n4n3)CC1)C(=O)N2C (stereo not drawn)
ASSAYED_SYSTEM: CT26
IC50, µM: 11.8

MOLECULE: Cc1noc(C)c1-c1ccc2c(c1)C(c1ccccc1)N(CCCCCCN1CCN(c3ccc4nnc(Cl)n4n3)CC1)C(=O)N2C (stereo not drawn)
ASSAYED_SYSTEM: CT26
IC50, µM: 7.95

MOLECULE: Cc1noc(C)c1-c1ccc2c(c1)C(c1ccccc1)NC(=O)N2C (stereo not drawn)
ASSAYED_SYSTEM: CT26
IC50, µM: 36

====

Catalogue of inhibition at 48 h, 2 µM values
# PROTOCOL_TEXT: Cytotoxicity against human MCF-10A cells assessed as inhibition of cell proliferation at 2 uM incubated for 48 hrs by MTT assay
# Format: cell-based
OBSERVATION_TYPE: inhibition at 48 h, 2 µM (%)

COMPOUND: Cc1noc(C)c1-c1ccc2c(c1)C(c1ccccc1)N(Cc1nnc(-c3ccccc3)s1)C(=O)N2C (stereo not drawn)
RESULT_VALUE: 3.3
--
COMPOUND: Cc1noc(C)c1-c1ccc2c(c1)C(c1ccccc1)N(CCCCCCN1CCN(c3ccc4nnc(Cl)n4n3)CC1)C(=O)N2C (stereo not drawn)
RESULT_VALUE: 5.3
--
COMPOUND: Cc1nc(-c2ccccc2)sc1CN1C(=O)N(C)c2ccc(-c3c(C)noc3C)cc2C1c1ccccc1 (stereo not drawn)
RESULT_VALUE: 4.9
--
COMPOUND: Cc1noc(C)c1-c1ccc2c(c1)C(c1ccccc1)N(CCCCCC(=O)N1CCN(c3ccc4nnc(Cl)n4n3)CC1)C(=O)N2C (stereo not drawn)
RESULT_VALUE: 14.7
--
COMPOUND: Cc1noc(C)c1-c1ccc2c(c1)C(c1ccccc1)N(Cc1csc(-c3ccc(F)cc3)n1)C(=O)N2C (stereo not drawn)
RESULT_VALUE: 6.8
--
COMPOUND: Cc1noc(C)c1-c1ccc2c(c1)C(c1ccccc1)N(CCCCN1CCN(c3ccc4nnc(Cl)n4n3)CC1)C(=O)N2C (stereo not drawn)
RESULT_VALUE: 11.6
--
COMPOUND: Cc1noc(C)c1-c1ccc2c(c1)C(c1ccccc1)NC(=O)N2C (stereo not drawn)
RESULT_VALUE: 6.8
--
COMPOUND: Cc1noc(C)c1-c1ccc2c(c1)C(c1ccccc1)N(Cc1nc(-c3ccccc3)cs1)C(=O)N2C (stereo not drawn)
RESULT_VALUE: 2.7

====

# ASSAYED_SYSTEM: Bromodomain-containing protein 4 (Homo sapiens, UniProt O60885)
# PROTOCOL_TEXT: Inhibition of BRD4-BD1 (unknown origin) preincubated for 15 mins followed by substrate addition and measured after 1 hr
Catalogue of log10(IC50) values
OBSERVATION_TYPE: log10(IC50) (log10 of the value in nM)

MOLECULE: Cc1noc(C)c1-c1ccc2c(c1)C(c1ccccc1)N(CCCCCCCC(=O)N1CCN(c3ccc4nnc(Cl)n4n3)CC1)C(=O)N2C (stereo not drawn)
log10(IC50): 1.57
--
MOLECULE: Cc1noc(C)c1-c1ccc2c(c1)C(c1ccccc1)N(CCCCN1CCN(c3ccc4nnc(Cl)n4n3)CC1)C(=O)N2C (stereo not drawn)
log10(IC50): 0.48
--
MOLECULE: Cc1noc(C)c1-c1ccc2c(c1)C(c1ccccc1)N(CCCCCCN1CCN(c3ccc4nnc(Cl)n4n3)CC1)C(=O)N2C (stereo not drawn)
log10(IC50): 0.49
--
MOLECULE: Cc1noc(C)c1-c1ccc2c(c1)C(c1ccccc1)N(Cc1nnc(-c3ccc(F)cc3)o1)C(=O)N2C (stereo not drawn)
log10(IC50): 1.76
--
MOLECULE: Cc1noc(C)c1-c1ccc2c(c1)C(c1ccccc1)N(Cc1nnc(-c3ccccc3)o1)C(=O)N2C (stereo not drawn)
log10(IC50): 1.74
--
MOLECULE: Cc1noc(C)c1-c1ccc2c(c1)C(c1ccccc1)NC(=O)N2C (stereo not drawn)
log10(IC50): 1.72
--
MOLECULE: Cc1noc(C)c1-c1ccc2c(c1)C(c1ccccc1)N(CC(=O)N1CCN(c3ccc4nnc(Cl)n4n3)CC1)C(=O)N2C (stereo not drawn)
log10(IC50): 0.75
--
MOLECULE: Cc1noc(C)c1-c1ccc2c(c1)C(c1ccccc1)N(CCCCCC(=O)N1CCN(c3ccc4nnc(Cl)n4n3)CC1)C(=O)N2C (stereo not drawn)
log10(IC50): 0.96
